Target Or Test System: SPOP^MATH (MATH domain of Speckle-type POZ protein, residues 28-166) (UniProt O43791 28-166)
Sequence (O43791 28-166): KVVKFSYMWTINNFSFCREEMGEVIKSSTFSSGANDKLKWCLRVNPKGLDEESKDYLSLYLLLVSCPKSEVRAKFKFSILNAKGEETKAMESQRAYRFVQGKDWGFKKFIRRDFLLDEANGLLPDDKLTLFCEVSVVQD
Assay: fluorescence polarisation
pKd: −log10 of the molar value.
Endpoint Name: pKd

A. Ac-KVSEEPSTSSDERA-NH2 [SBM3 (Gli3 peptide, SPOP-binding motif 3)]
B. Ac-ENLACDEVTSTTSSST-NH2 [pPuc (peptide derived from the Drosophila melanogaster protein Puckered, residues 91-106)]
C. Ac-EKAVASSTTSNEDES-NH2 [SBM2 (Gli3 peptide, SPOP-binding motif 2)]
In: I would appreciate it if you could sort these 3 binders by pKd, starting from the smallest number. I'd appreciate it if you listed the labels in the requested order.
Out: A, C, B
(A: 3.25, C: 4.10, B: 5.11)
